Entry source: paper PMC4546552

Test: Pharmacokinetic analyses in mice, intravenous
Type: in vivo
Settings: mouse, plasma, 3 mg/kg
Assay endpoint: half-life

Incoming: Please list half-life recorded for the compound `O=C(N[C@H]1CNC1=O)OCCCCC1CCCCC1`
Outgoing: ~15 min

----------
Assay: Pharmacokinetic analyses in mice, intravenous
Type: in vivo
Settings: mouse, plasma, 3 mg/kg
Assay endpoint: Vd (L/kg)
Quick note: give the figure in L/kg, leave out the unit.

Incoming: Please list Vd recorded for the compound `O=C(N[C@H]1CNC1=O)OCCCCC1CCCCC1`
Outgoing: 3.1

----------
Test: Stability in mouse liver microsomes
Assay type: in vitro ADME
Assay endpoint: half-life

Incoming: Please list half-life recorded for the molecule `O=C(N[C@H]1CNC1=O)OCCCCC1CCCCC1`
Outgoing: < 5 min
